Target or system: ATP-binding cassette transporter A1 (ABCA1) (UniProt P41233 1-2261, limits assumed)
Sequence (P41233 whole entry): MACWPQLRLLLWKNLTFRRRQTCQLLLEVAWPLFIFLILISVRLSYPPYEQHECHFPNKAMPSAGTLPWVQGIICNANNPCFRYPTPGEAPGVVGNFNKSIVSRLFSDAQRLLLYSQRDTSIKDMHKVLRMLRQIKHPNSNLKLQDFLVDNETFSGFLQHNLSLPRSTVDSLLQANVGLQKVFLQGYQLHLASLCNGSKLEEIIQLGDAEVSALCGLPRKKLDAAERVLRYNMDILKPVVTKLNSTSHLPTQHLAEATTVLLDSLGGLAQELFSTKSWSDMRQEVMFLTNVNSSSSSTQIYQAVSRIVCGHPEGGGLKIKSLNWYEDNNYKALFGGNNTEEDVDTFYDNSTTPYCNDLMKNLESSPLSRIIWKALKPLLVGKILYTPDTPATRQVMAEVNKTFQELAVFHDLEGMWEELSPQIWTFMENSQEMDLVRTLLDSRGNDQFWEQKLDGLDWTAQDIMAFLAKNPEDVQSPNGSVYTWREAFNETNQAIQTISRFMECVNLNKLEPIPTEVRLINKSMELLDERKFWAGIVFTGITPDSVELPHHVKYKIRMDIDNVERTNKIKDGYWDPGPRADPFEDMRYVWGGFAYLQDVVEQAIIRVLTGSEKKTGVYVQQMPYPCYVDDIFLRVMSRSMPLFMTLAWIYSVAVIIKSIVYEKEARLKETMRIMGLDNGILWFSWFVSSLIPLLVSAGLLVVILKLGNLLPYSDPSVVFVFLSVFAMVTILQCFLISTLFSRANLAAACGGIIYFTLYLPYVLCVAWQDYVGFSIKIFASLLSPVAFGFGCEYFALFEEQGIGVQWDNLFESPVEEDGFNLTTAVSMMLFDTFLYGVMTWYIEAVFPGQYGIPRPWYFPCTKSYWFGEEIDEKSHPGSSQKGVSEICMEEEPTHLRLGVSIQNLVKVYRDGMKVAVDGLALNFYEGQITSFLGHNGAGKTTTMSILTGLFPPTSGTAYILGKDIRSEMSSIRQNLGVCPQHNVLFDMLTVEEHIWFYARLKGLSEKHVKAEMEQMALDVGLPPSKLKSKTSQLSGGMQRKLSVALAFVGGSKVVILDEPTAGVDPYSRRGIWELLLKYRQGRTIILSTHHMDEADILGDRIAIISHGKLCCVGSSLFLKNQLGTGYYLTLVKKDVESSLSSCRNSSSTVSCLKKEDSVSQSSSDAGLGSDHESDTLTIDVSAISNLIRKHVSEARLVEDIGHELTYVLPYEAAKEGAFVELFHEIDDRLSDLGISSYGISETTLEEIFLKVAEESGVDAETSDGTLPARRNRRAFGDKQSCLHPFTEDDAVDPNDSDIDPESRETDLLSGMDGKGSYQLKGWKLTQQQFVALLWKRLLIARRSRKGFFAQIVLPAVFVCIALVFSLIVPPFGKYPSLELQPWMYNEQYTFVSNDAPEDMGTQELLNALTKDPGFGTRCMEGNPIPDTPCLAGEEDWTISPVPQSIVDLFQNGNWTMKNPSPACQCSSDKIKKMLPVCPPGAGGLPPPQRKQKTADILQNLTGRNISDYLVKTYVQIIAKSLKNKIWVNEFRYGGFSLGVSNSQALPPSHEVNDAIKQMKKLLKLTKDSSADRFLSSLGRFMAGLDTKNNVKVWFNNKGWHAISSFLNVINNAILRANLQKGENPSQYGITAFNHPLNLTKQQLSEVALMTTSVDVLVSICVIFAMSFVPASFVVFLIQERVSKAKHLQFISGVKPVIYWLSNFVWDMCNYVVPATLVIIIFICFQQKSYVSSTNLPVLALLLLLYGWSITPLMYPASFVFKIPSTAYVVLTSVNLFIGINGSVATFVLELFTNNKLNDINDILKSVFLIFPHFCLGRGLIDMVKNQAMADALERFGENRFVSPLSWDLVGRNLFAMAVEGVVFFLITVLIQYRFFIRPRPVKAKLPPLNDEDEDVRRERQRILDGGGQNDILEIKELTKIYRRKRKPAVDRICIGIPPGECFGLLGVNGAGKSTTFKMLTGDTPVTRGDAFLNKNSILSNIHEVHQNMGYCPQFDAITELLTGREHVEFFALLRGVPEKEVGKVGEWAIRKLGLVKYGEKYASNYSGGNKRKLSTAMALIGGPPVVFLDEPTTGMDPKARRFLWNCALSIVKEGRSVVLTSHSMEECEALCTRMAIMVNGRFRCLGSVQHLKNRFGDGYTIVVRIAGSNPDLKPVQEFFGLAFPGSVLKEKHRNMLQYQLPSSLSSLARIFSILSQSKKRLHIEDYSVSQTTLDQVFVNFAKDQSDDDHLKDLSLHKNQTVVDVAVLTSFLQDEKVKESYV
Test: cell-based or functional assay
Measurement kind: % cholesterol efflux/4 hours at 3.0 µg/ml (%)

1) EVREKLEAWFELFREFLERFKS [N965-4] ... 4.72
2) EVREKLEAWFELFREFLERF [N965-7] ... 4.94

A = EVREKLEAWFELFREFLERFL [N965-6]
B = EVREKLEAWFELFREFLERFLS [N965-5]
-- ask Just tell me: smaller % cholesterol efflux/4 hours at 3.0 µg/ml value, A or B ? Write down the label attached to your selection.
-- reply A
